biological target: SARS-CoV-2 Wuhan-Hu-1 RBD (SARS-CoV-2, Wuhan-Hu-1 (GenBank …, UniProt P0DTC2)); assay: cell-based or functional assay
This section presents binders with their documented neutralisation IC50, Wuhan-Hu-1 pseudovirus values.
METRIC NAME: neutralisation IC50, Wuhan-Hu-1 pseudovirus

1. JR170 (antibody, V domains shown) VH: QVQLVQSGAEVRKPGASVKVSCKASRYTFTNNYIHWVRQAPGQGLEWMGIINPSGGSTTYAQKFQGRVTMTGDTSTSTVYMELSSLRSEDTAVYYCARGGFVPAATSYFDYWGQGTLVTVS VL: QSALTQPRSVSGSPGQSVTISCTGTSSDVGGYNYVSWYQQHPGKAPKLMIYDVSKRPSGVPDRFSGSKSGNTASLTISGLQAEDEADYYCCSYAGSYTLVFGGGTKLTVL :: > 1 µg/mL
2. JR053 (antibody, V domains shown) VH: QVQLVQSGAEVKKPGASVKVSCKASGYTFTSHYMHWVRQAPGQGLEWMGIINPSGGSTSHAQKFQGRVTLTSDTSTSTVYMELSSLRSEDTAVYYCARDLSFIPSIAWNCGYWGQGTLVTVSS VL: QSALTQPASVSGSPGQSITISCTGTSSDVGGYNYVSWYQQHPGKAPKLMIYDVSDRPSGVSNRFSGSKSGNTASLTISGLQAEDEADYYCSSYTSSSSYVFGTGTKVTVL :: > 1 µg/mL
3. JR077 (antibody, V domains shown) VH: EVQLVESGGGLVQPGGSLRLSCAASGFTFSDYDMHWVRQVTGKGLEWVSAVGTRGDTYYAASVKGRFTISRENAKNSLYLQMNSLRAGDTAVYYCARVGYDSTGFYYYFDYWGQGTLVTVSS VL: DIQLTQSPSSLSASVGDRVTITCRASQRIGRFLNWYQQKPGKAPKLLIYIVSSLQSGVPSRFSGSGSGTDFTLTINSLQPEDFATYYCQQTYNMPPITFGQGTRLEIK :: > 1 µg/mL
